target-under-test: serotonin (5-HT) reuptake (Rattus norvegicus, UniProt P31652)
Construct: synaptosomes are freshly isolated from areas of the rat brain; from tissue; host or cells: rat brain synaptosomes (P2 fraction)
Sequence (P31652 whole entry): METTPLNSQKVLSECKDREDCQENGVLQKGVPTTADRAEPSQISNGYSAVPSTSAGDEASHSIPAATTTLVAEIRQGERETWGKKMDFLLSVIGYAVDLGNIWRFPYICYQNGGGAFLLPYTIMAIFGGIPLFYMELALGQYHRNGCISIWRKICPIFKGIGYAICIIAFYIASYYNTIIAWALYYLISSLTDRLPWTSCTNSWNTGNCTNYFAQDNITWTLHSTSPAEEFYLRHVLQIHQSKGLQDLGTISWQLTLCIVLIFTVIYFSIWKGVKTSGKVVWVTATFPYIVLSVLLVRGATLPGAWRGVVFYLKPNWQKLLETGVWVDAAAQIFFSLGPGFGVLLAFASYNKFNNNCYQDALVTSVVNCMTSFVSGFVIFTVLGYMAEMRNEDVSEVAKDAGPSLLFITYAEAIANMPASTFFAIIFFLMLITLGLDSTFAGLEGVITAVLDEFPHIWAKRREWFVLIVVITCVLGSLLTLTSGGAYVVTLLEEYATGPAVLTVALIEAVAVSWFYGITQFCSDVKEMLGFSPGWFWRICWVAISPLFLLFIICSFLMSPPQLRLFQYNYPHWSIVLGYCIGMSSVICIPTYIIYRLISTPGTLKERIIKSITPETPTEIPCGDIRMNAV
method-summary: Inhibition of serotonin (5HT) reuptake in synaptosomes from rat brain
Format: biochemical
condition-parameters: test concentration of 10 μM
This section presents compounds with their documented 5-HT (inhibition of reuptake of serotonin, % inhibition) values.
parameter-measured: 5-HT (inhibition of reuptake of serotonin, % inhibition) (%)

{"columns": ["compound", "measured"],
 "data": [
  ["CN(C)C(CCc1ccccc1)C1CCC(CNC(=O)COCCN(C)S(=O)(=O)c2ccc(Cl)cc2Cl)CC1 (stereo not drawn)", 89],
  ["COc1ccc(S(=O)(=O)N(C)CCOCC(=O)NCC2CCC(C(CCc3ccccc3)N(C)C)CC2)cc1OC (stereo not drawn)", 88],
  ["CN(C)C(CCc1ccccc1)C1CCC(CNC(=O)COCC2CCCN2S(=O)(=O)c2ccc(Cl)c(Cl)c2)CC1 (stereo not drawn)", 88],
  ["COc1cc(C)c(S(=O)(=O)N(C)CCOCC(=O)NCCC2CCC(C(c3ccc(Cl)cc3)N(C)C)CC2)c(C)c1C (stereo not drawn)", 88],
  ["COc1ccc(S(=O)(=O)N2CCCC2COCC(=O)NC2CCC(C(c3cccc(F)c3)N(C)C)CC2)cc1 (stereo not drawn)", 92],
  ["CN(C)C(c1cccc(F)c1)C1CCC(CCNC(=O)COCCN(C)S(=O)(=O)c2ccc(OC(F)(F)F)cc2)CC1 (stereo not drawn)", 90]
]}

---

This section presents compounds with their documented 5-HT (inhibition of reuptake of serotonin, % inhibition) values.
target-under-test: serotonin (5-HT) reuptake (Rattus norvegicus)
Construct: synaptosomes are freshly isolated from areas of the rat brain; from tissue; host or cells: rat brain synaptosomes (P2 fraction)
method-summary: Inhibition of serotonin (5HT) reuptake in synaptosomes from rat brain
Assay type: biochemical
condition-parameters: test concentration of 10 μM
parameter-measured: 5-HT (inhibition of reuptake of serotonin, % inhibition) (%)

{"columns": ["compound", "measured"],
 "data": [
  ["CC(Oc1ccccc1)C(=O)NCCC1CCC(C(c2ccccc2)N(C)C)CC1 (stereo not drawn) [Example 270]", 73],
  ["CCOC(=O)C(=O)NCC1CCC(C(CCc2ccccc2)N(C)C)CC1 (stereo not drawn) [Example 421]", 26],
  ["COc1ccc(S(=O)(=O)N2Cc3ccccc3CC2COCC(=O)NCCC2CCC(C(c3ccc(Cl)cc3)N(C)C)CC2)cc1 (stereo not drawn) [Example 374]", 90],
  ["COc1cc(C)c(S(=O)(=O)N2CCC(OCC(=O)NC3CCC(C(c4ccc(F)cc4)N(C)C)CC3)C2)c(C)c1C (stereo not drawn) [Example 365]", 90],
  ["COc1cc(C)c(S(=O)(=O)N(C)CCOCC(=O)NC2CCC(C(c3ccc(F)cc3)N(C)C)CC2)c(C)c1C (stereo not drawn) [Example 380]", 81],
  ["CN(C)C(c1ccc(F)cc1)C1CCC(NC(=O)COCCN(C)S(=O)(=O)c2c(Cl)cccc2Cl)CC1 (stereo not drawn) [Example 363]", 73],
  ["COc1ccc(S(=O)(=O)N2CCC(OCC(=O)NC3CCC(C(c4cccc(F)c4)N(C)C)CC3)C2)cc1OC (stereo not drawn) [Example 323]", 91],
  ["COc1ccc(S(=O)(=O)N2CCCC2COCC(=O)NCC2CCC(C(CCc3ccccc3)N(C)C)CC2)cc1 (stereo not drawn) [Example 572]", 93],
  ["CN(C)C(c1ccc(Cl)cc1)C1CCC(CCNC(=O)COCCN(C)S(=O)(=O)c2ccc(F)cc2)CC1 (stereo not drawn) [Example 241]", 102]
]}

---

target-under-test: human bradykinin 1 receptor (B1R) (Homo sapiens, UniProt P46663)
Construct: expressed in transfected cells; host or cells: CHO K1 cells
Sequence (P46663 whole entry): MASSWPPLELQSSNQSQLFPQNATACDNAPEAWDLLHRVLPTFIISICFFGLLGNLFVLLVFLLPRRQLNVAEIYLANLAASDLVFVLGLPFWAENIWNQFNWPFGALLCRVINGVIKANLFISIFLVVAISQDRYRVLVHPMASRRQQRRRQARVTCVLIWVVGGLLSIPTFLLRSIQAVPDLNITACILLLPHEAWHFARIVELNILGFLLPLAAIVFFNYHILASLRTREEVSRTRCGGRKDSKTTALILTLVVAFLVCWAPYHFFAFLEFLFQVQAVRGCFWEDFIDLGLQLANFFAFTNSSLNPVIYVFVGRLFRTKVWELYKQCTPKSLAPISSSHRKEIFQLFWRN
method-summary: Functional investigation on the human bradykinin 1 receptor (B1R), Ca2+ FLIPR assay in CHO K1 hB1R cells
Format: cell-based
condition-parameters: B1R antagonism human; test substance 10 μM; Ca2+ FLIPR, CHO K1 hB1R cells

{"columns": ["compound", "B1R Ant. h [10 μM] % Inhibition, %"],
 "data": [
  ["CN(C)C(c1cccc(F)c1)C1CCC(CCNC(=O)COCCN(C)S(=O)(=O)c2ccc(F)cc2)CC1 (centres unmarked)", 7],
  ["CN(C)C(c1cccc(F)c1)C1CCC(CCNC(=O)COCC2CCCN(S(=O)(=O)c3ccccc3)C2)CC1 (centres unmarked)", 7],
  ["CN(C)C(c1ccc(F)cc1)C1CCC(NC(=O)COC2CCCN(S(=O)(=O)c3ccccc3)C2)CC1 (centres unmarked)", 4],
  ["CN(C)C(c1ccc(F)cc1)C1CCC(CNC(=O)COC2CCN(S(=O)(=O)c3ccc(F)cc3)C2)CC1 (centres unmarked)", 1],
  ["CN(C)C(c1ccc(Cl)cc1)C1CCC(CNC(=O)COCCN(C)S(=O)(=O)c2ccc(Cl)cc2)CC1 (centres unmarked)", 48]
]}

---

target-under-test: bradykinin 1 receptor (B1R) of the rat (Rattus norvegicus)
Construct: expressed in transfected cells; host or cells: CHO K1 cells
Sequence (P97583 1-337): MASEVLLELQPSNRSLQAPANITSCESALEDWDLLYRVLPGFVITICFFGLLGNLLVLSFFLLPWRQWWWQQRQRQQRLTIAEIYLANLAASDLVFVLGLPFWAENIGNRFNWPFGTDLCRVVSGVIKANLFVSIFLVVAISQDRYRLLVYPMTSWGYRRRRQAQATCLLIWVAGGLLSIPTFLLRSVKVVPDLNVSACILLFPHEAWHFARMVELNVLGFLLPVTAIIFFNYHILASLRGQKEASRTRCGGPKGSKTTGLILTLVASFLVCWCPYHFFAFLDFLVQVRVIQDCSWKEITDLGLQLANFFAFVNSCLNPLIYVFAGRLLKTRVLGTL
method-summary: Functional investigation on the rat bradykinin 1 receptor (B1R), Ca2+ FLIPR assay in CHO K1 rB1R cells
Format: cell-based
condition-parameters: CHO-K1, B1R antagonism rat; test substance 10 μM; Ca2+ FLIPR, CHO K1 rB1R cells; read-out: B1R Ant. r [10 μM] % Inhibition

{"columns": ["compound", "target-under-test", "inhibition at 10 µM / %"],
 "data": [
  ["Cc1ccc(S(=O)(=O)N2CCC(OCC(=O)NC3CCC(C(c4cccs4)N(C)C)CC3)C2)cc1 (stereo not shown)", "bradykinin 1 receptor (B1R) of the rat (Rattus norvegicus)", 20],
  ["CN(CCOCC(=O)NC1CCC(C(c2ccccc2)N2CCCC2)CC1)S(=O)(=O)c1c(Cl)cccc1Cl (stereo not shown)", "bradykinin 1 receptor (B1R) of the rat (Rattus norvegicus)", 38],
  ["COc1cc(C)c(S(=O)(=O)N2CCCC(OCC(=O)NC3CCC(C(c4ccccc4)N4CCCC4)CC3)C2)c(C)c1 (stereo not shown)", "bradykinin 1 receptor (B1R) of the rat (Rattus norvegicus)", 94],
  ["COc1cc(C)c(S(=O)(=O)N(C)CCOCC(=O)NC2CCC(C(CCc3ccccc3)N3CCCCC3)CC2)c(C)c1 (stereo not shown)", "bradykinin 1 receptor (B1R) of the rat (Rattus norvegicus)", 95]
]}
